Target: His6-PYL3 / biotin-PP2C (Arabidopsis thaliana, UniProt Q9SSM7)
Construct: made in house; host or cells: not expressly stated for PYL3
Sequence (Q9SSM7 1-209): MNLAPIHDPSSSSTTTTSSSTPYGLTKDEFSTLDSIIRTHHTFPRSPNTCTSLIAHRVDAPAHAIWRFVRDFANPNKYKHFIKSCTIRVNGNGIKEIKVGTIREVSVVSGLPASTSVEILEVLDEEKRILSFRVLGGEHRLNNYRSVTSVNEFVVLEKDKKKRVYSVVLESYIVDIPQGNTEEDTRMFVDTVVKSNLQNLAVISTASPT
Assay: AlphaScreen luminescence proximity assay, PYL3-PP2C interaction
Assay type: biochemical
Conditions: 100 nM His6-PYL3, 100 nM biotin-PP2C, 100 μM agonist; normalized against a pyrabactin control
RECORDED_ENDPOINT: Stimulation of the interaction between PYL3 and PP2C (binding signal)

[[record]]
molecule = "CCN1C(=O)c2cccc3c(S(=O)(=O)NC[C@@H]4CCCO4)ccc1c23"
value_measured = "++ (++ is 25,000−75,000)"

[[record]]
molecule = "O=S(=O)(NCc1ccccn1)c1ccc2ccccc2c1"
value_measured = "+ (+ is <25,000)"

[[record]]
molecule = "CCOC(=O)C1OC(NC(=O)CSc2nnc(-c3ccccc3OCC)o2)C(C#N)C1C (centres unmarked)"
value_measured = "+ (+ is <25,000)"

[[record]]
molecule = "CC(=O)c1cccc(N/C=C/C(=O)c2ccc(Cl)c(Cl)c2)c1"
value_measured = "++ (++ is 25,000−75,000)"


----------
Target: His6-PYL2 / biotin-PP2C (Arabidopsis thaliana)
Construct: PYL2 (residues 14-188), and HAB1 (residues 172-511) were prepared as recombinant proteins in E. coli; made in house; host or cells: E. coli
Sequence (O80992 14-188): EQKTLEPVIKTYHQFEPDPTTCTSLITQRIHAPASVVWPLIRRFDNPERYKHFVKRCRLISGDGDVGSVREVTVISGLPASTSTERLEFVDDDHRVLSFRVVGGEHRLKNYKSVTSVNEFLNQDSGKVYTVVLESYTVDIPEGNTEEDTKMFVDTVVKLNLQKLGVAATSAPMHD
Experiment: AlphaScreen luminescence proximity assay, PYL2-PP2C interaction
Format: biochemical
Conditions: 100 nM His6-PYL2, 100 nM biotin-PP2C, 100 μM agonist; normalized against a pyrabactin control
RECORDED_ENDPOINT: Stimulation of the interaction between PYL2 and PP2C (binding signal)

[[record]]
compound = "O=S(=O)(NCCOc1ccccc1)c1ccc2ccccc2c1 [Compound 8]"
value_measured = "+ (+ is <25,000)"

[[record]]
compound = "CC1(C)CC(=O)C(/C=N/CCc2ccc(S(N)(=O)=O)cc2)=C(O)C1 [Compound 10]"
value_measured = "+ (+ is <25,000)"

[[record]]
compound = "Cc1ccc(C(=O)O)cc1NC(=S)NC(=O)c1ccccc1Cl [Compound 14]"
value_measured = "+ (+ is <25,000)"


----------
Biological target: His6-PYR1 / biotin-ABI2 (Arabidopsis thaliana, UniProt O49686)
Construct: not expressly for PYR1)
Sequence (O49686 whole entry): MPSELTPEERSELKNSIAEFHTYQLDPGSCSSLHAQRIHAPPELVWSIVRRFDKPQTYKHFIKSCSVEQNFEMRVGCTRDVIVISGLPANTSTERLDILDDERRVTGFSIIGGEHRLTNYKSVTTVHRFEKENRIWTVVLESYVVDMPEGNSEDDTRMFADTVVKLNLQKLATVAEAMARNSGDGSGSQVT
Sequence (O04719 101-423 partner limits assumed): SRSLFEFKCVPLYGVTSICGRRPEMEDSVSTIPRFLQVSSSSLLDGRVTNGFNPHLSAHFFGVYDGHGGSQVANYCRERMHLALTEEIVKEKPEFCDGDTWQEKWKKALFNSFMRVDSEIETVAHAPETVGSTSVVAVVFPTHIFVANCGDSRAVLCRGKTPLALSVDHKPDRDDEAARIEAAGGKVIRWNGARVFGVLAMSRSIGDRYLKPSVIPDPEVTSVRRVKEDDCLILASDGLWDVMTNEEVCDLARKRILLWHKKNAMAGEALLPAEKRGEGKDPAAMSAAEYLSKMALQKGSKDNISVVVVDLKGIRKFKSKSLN
Experiment: AlphaScreen dose response, PYR1-ABI2 interaction
Conditions: 100 nM His6-PYR1, 100 nM biotin-PP2C, 0-100 μM agonist; from dose response curves
Catalogue of EC50 values

Record excerpt, results attached:
[[record]]
molecule = "CCOC(=O)CNS(=O)(=O)c1ccc2c3c(cccc13)C(=O)N2CC"
value_measured = "20 to 60 µM"

[[record]]
molecule = "O=C1Nc2ccc(S(=O)(=O)NCc3ccccn3)c3cccc1c23"
value_measured = "20 to 60 µM"


Query for His6-PYR1 / biotin-ABI2 (Arabidopsis thaliana, UniProt O49686): what EC50 does the record show for CSCCCC(NS(=O)(=O)c1ccc(Br)c2ccccc12)C(=O)O (centres unmarked) ?
< 5 µM

What value of EC50 on His6-PYR1 / biotin-ABI2 (Arabidopsis thaliana, UniProt O49686) does O=S(=O)(NCc1ccccn1)c1ccc(Br)c2ccccc12 have?
5 to 10 µM

Lookup: EC50 / His6-PYR1 / biotin-ABI2 (Arabidopsis thaliana, UniProt O49686) / CCN1C(=O)c2cccc3c(S(=O)(=O)NC[C@@H]4CCCO4)ccc1c23
20 to 60 µM
